- Target of assay: UniProt P07948
- Sequence (P07948 whole entry): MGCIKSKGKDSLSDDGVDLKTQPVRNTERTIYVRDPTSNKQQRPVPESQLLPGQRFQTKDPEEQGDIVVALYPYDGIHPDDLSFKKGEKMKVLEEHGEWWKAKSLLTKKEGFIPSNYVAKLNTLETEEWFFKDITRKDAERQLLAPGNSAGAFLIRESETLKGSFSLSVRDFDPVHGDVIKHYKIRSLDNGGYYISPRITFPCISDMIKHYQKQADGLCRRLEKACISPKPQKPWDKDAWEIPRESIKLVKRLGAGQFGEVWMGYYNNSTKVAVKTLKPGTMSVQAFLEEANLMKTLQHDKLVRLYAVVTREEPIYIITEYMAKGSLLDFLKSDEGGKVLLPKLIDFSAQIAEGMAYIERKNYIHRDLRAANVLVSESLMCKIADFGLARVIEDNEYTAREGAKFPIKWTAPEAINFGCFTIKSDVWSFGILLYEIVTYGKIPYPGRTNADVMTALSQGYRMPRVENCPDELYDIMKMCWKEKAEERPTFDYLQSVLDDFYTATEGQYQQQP
Activity calls are given as the source filed them.
Hello, when you answer, please use one of the following outcomes: active, inactive

> print(dat)
                               smiles.entry  target.of.assay  category.label
1  Cc1cc(Nc2nc(N[C@@H](C)c3ncc(F)cn3)ncc2Cl)n[nH]1   UniProt P07948        inactive
2  Cn1c(=O)n(-c2ccc(C(C)(C)C#N)cc2)c2c3cc(-c4cnc5ccccc5c4)ccc3ncc21   UniProt P07948        inactive
3  CC1(COc2ccc3c(c2)ncn3-c2ccc3cccc(N4CCC(N)CC4)c3n2)COC1   UniProt P07948        inactive
4  NC[C@@](O)(c1ccc(Cl)cc1)c1ccc(-c2cn[nH]c2)cc1   UniProt P07948        inactive
5  C=CC(=O)Nc1cccc(Nc2nc(Nc3ccc(N4CCN(C(C)=O)CC4)cc3OC)ncc2C(F)(F)F)c1   UniProt P07948        inactive
6  COc1cccc(Nc2ncnn3ccc(CN4CC[C@@H](N)[C@H](O)C4)c23)c1   UniProt P07948          active

We next turn to a different compound, shown below.
Q: # lookup: test call for O=c1[nH]c([C@@H]2CCCN2)nc2c1oc1ccc(Cl)cc12
Ans: inactive

---

- Target of assay: Serine/threonine-protein kinase Nek1 (Homo sapiens, UniProt Q96PY6); note: in the data inactive means no Kd found up to 30 µM
- Sequence (Q96PY6 whole entry): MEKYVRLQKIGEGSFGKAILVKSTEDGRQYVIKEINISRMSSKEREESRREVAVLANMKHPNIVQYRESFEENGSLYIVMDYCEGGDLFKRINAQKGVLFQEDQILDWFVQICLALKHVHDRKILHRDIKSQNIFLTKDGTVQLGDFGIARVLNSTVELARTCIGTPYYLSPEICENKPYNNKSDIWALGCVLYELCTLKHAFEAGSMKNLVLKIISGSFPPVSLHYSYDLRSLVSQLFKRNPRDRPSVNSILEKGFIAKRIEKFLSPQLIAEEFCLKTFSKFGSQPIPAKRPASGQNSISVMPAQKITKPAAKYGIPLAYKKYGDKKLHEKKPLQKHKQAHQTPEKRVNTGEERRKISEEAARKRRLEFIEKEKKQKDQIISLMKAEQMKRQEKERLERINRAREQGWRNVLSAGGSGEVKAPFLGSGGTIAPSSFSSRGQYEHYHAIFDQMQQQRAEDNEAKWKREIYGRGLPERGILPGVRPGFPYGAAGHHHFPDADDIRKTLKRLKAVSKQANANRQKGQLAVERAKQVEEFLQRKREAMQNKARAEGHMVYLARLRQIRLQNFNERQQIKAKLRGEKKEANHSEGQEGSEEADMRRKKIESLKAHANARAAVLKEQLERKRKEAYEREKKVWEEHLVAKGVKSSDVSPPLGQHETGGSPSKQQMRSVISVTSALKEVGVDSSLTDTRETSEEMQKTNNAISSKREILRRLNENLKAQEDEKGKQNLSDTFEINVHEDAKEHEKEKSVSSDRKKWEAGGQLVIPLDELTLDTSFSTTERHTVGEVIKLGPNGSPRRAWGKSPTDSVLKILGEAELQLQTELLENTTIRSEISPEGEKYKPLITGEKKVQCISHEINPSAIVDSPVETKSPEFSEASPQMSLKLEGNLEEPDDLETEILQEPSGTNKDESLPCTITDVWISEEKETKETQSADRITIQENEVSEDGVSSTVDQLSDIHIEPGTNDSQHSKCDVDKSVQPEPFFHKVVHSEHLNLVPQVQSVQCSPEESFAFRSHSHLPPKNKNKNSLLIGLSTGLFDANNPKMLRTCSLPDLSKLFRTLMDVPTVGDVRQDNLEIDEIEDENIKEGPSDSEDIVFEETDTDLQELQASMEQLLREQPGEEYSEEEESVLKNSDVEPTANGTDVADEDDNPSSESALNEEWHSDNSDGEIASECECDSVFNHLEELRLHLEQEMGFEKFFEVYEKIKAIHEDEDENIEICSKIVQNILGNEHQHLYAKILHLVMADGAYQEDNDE
The source made the active and inactive calls.
Hello, when you answer, please use one of the following outcomes: active, inactive

> print(dat)
                                   molecule  category.label
1  O=C(NC[C@H](O)CO)c1ccncc1Nc1ccc(I)cc1F [PIMASERTIB]        inactive
2  CC1(COc2ccc3c(c2)ncn3-c2ccc3cccc(N4CCC(N)CC4)c3n2)COC1 [CRENOLANIB]        inactive
3  COc1ccc2c(OCc3nnc4ccc(-c5ccccc5)nn34)ccnc2c1 [AMG-208]        inactive
4  CNC(=O)c1cc(COc2nnc(Nc3ccc(Cl)cc3)c3ccoc23)ccn1 [TELATINIB]        inactive
5  O=c1[nH]c([C@@H]2CCCN2)nc2c1oc1ccc(Cl)cc12        inactive
6  O=C(O)c1ccc2c(c1)nc(Nc1cccc(Cl)c1)c1ccncc12 [SILMITASERTIB]        inactive

Q: # lookup: test call for CCN(CCCOc1ccc2c(Nc3cc(CC(=O)Nc4cccc(F)c4)n[nH]3)ncnc2c1)CCOP(=O)(O)O [BARASERTIB]
Ans: inactive

Q: # lookup: test call for CCOc1ccn(-c2ccc(F)cc2)c(=O)c1C(=O)Nc1ccc(Oc2ccnc(N)c2Cl)c(F)c1 [BMS-777607]
Ans: inactive

Q: # lookup: test call for Cn1c(=O)c(F)c(Nc2ccc(I)cc2F)c2c(=O)n(C[C@@H](O)CO)cnc21 [TAK-733]
Ans: inactive

Q: # lookup: test call for COc1cc2ncnc(Nc3ccc(O)cc3)c2cc1OC [WHI-P131]
Ans: inactive

Q: # lookup: test call for NC[C@@](O)(c1ccc(Cl)cc1)c1ccc(-c2cn[nH]c2)cc1 [AT-13148]
Ans: inactive

Q: # lookup: test call for NC(=O)c1ccc(N(C(N)=O)c2c(F)cccc2F)nc1-c1ccc(F)cc1F [VX-702]
Ans: inactive

Q: # lookup: test call for C=CCn1c(=O)c2cnc(Nc3ccc(N4CCN(C)CC4)cc3)nc2n1-c1cccc(C(C)(C)O)n1 [ADAVOSERTIB]
Ans: inactive

Q: # lookup: test call for FC(F)(F)c1ccc(CNc2ccc(Cc3c[nH]c4ncc(Cl)cc34)cn2)cn1 [PEXIDARTINIB]
Ans: inactive
